# methodDescription: Toxicity liver stage against HepG2, at 10uM
# Type: cell-based
# Set-up: test concentration 10 uM, cell line HepG2-A16-CD81EGFP
# testConditions: human, HepG2-A16-CD81EGFP cells; read-out: INHIBITION
measurementType: cytotoxicity at 10 µM
Give the number first and the unit second.

COCCN(C)CCN1CC2(CCN(C3CCCCC3)CC2)OC1=O    3.73%
CC(Cn1cccn1)NCc1csc(Cc2ccccc2)n1 (configuration not stated)    -8.15%
CNc1ncccc1CN1CCN(C)CC(C(N)=O)C1 (configuration not stated)    0.106%

Give cytotoxicity at 10 µM for CC(NCc1cccnc1)c1cc2c(cc1Br)OCCO2 (configuration not stated)
2.46%

Give cytotoxicity at 10 µM for CC(CNCc1ccc2c(c1)n(C)c(=O)n2C)Oc1ccccn1 (configuration not stated)
6.27%

Give cytotoxicity at 10 µM for Cn1cc(CN2C[C@@H]3COC[C@@H](C(=O)N4CCCCO4)[C@@H]3C2)cn1
-1.57%

Give cytotoxicity at 10 µM for COCCN1CCCC1c1nccnc1Nc1ncc(C)s1 (configuration not stated)
-7.99%

Give cytotoxicity at 10 µM for N#Cc1ccnc(N2CCN(CC(O)c3ccccc3)CC2)c1 (configuration not stated)
0.587%

Give cytotoxicity at 10 µM for Cc1cnn(CCNCc2cc(C#N)ccc2F)c1
-10.1%

Give cytotoxicity at 10 µM for CCCOCCN1CCc2[nH]c(-c3ccc(OC)cc3)nc2C1
-113%

Give cytotoxicity at 10 µM for CC(C)C(=O)N1CCC12CCCN(C(=O)c1ccccc1)C2 (configuration not stated)
6.8%

Give cytotoxicity at 10 µM for CCCc1cnc(C)nc1NCCc1nc(C)cc(=O)[nH]1
-5.1%

====

Entries annotated with measured cytotoxicity at 10 µM
# methodDescription: Toxicity liver stage against HepG2, at 10uM
# Type: cell-based
# Design: test concentration 10 uM, cell line HepG2-A16-CD81EGFP
# testConditions: human, HepG2-A16-CD81EGFP cells; read-out: INHIBITION
Give a bare numeral; the unit % is implied.

O=C(C1CC1)N1CCC2(CC1)OCCO2    1.75
O=C(COCC1CC1)N1CCCC(n2cncn2)C1 (configuration not stated)    -3.54
CN1CCN(Cc2ccccc2Oc2nccc3occc23)CC1    5.83
N#Cc1ccc(OC[C@]23COC[C@H]2CN(Cc2nccs2)C3)nc1    2.37
CS(=O)(=O)CCCNC1(c2cccc(Cl)c2)CCCC1    0.245
CCCc1noc(CNc2ccc(C(=O)N3CCCC3)cc2C)n1    -2.83

Kindly consider the entry below.
Give cytotoxicity at 10 µM for O=S(=O)(c1cncc(F)c1)N1CCC2(CCOC2)C1 (configuration not stated)
-0.872

====

Entries annotated with measured cytotoxicity at 10 µM
# methodDescription: Toxicity liver stage against HepG2, at 10uM
# Format: cell-based
# Parameters: test concentration 10 uM, cell line HepG2-A16-CD81EGFP
# testConditions: human, HepG2-A16-CD81EGFP cells; read-out: INHIBITION
Give a bare numeral; the unit % is implied.

Cc1cc(C2CCCN2Cc2cc(-c3ccco3)on2)on1 (stereo unspecified)    1.6

Give cytotoxicity at 10 µM for CC(C)(C)C(=O)NCC(=O)Nc1cccnc1
-4.96

Give cytotoxicity at 10 µM for Cc1cc(NC(=O)CNc2cccc(C(=O)N3CCCC(O)C3)c2)no1 (stereo unspecified)
-2.21

Give cytotoxicity at 10 µM for Cc1ccc(C)c(C(=O)NC2CCC(N3C(=O)CCC3=O)CC2)c1 (stereo unspecified)
3.38

Give cytotoxicity at 10 µM for Cc1cccc(CN2CC[C@@H]3[C@@H]2CCN3C(=O)c2ccoc2C)n1
-3.99

Give cytotoxicity at 10 µM for COc1cc(CNC2CCCc3c2cnn3C)cc(OC)c1 (stereo unspecified)
-6.85
